# assayed system: T1, human GIP receptor (human, UniProt P48546 22-466)
# T1 sequence (looked up): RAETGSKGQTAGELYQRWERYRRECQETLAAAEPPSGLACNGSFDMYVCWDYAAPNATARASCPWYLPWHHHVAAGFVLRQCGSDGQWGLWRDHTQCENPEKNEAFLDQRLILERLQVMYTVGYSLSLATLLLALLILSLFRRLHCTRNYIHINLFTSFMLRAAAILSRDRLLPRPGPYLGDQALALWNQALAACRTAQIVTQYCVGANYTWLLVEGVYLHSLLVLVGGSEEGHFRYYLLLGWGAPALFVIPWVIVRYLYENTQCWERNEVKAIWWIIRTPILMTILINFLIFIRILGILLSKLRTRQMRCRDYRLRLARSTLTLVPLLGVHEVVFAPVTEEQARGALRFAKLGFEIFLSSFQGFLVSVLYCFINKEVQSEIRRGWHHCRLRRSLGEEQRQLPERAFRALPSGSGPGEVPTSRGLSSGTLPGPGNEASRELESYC
# test description: cell-based or functional assay
Hi there, I'd appreciate the recorded cAMP EC50 (1.0% HSA) for every entry that follows.
Give the value in nM but do not write nM after it.

Indicate the recorded cAMP EC50 (1.0% HSA) value for this binder: YXEGTXTSDYXIXLDXKAQXEFIXXLIEGGKSSGAPPPS (Aib2, αMeF(2F)6, αMeS11, αMeL13, Orn16, Aib20, D-Glu24, αMeY25; acylated K17, K31 (groups as in name); C-terminal amide)
1.51

Indicate the recorded cAMP EC50 (1.0% HSA) value for this binder: YXEGTXTSDXXIXLDXKAQXEFIXXLIEGGKSSGAPPPS (Aib2, αMeF(2F)6, 4Pal10, Dap11, αMeL13, Orn16, Aib20, D-Glu24, αMeY25; acylated K17, K31 (groups as in name); C-terminal amide)
2.45

Indicate the recorded cAMP EC50 (1.0% HSA) value for this binder: YXEGTXTSDXSIXLDXIAQXEFIXXLIKGGKSSGAPPPS (Aib2, αMeF(2F)6, 4Pal10, αMeL13, Orn16, Aib20, D-Glu24, αMeY25; acylated K28, K31 (groups as in name); C-terminal amide)
1.2

Indicate the recorded cAMP EC50 (1.0% HSA) value for this binder: YXEGTXTSDXSIXLDXKAQXXFIXXLIEGGKSSGAPPPS (Aib2, αMeF(2F)6, 4Pal10, αMeL13, Orn16, Aib20, 4Pal21, D-Glu24, αMeY25; acylated K17, K31 (groups as in name); C-terminal amide)
0.718
